FYI, the data here is from ChEMBL document CHEMBL1158607.

TGT: Muscarinic acetylcholine receptor M1 (Homo sapiens)
RUN_DESCRIPTION: Agonist activity at human muscarinic M1 receptor expressed in CHO cells assessed as effect on acetylcholine-induced intracellular calcium level by FLIPR assay
Recorded measurements of EC50, one per entry

Reported EC50 for Muscarinic acetylcholine receptor M1 (Homo sapiens), given `O=C(NCC1CCNCC1)c1ccccc1-c1ccc(F)c(Cl)c1` ?
0.0251 µM

// query: `O=C(NCC12CCN(CC1)CC2)c1ccccc1-c1nc(Cl)cs1`
0.251 µM

---

TGT: UniProt P11229
RUN_DESCRIPTION: Agonist activity at human muscarinic M1 receptor expressed in CHO cells assessed as effect on acetylcholine-induced intracellular calcium level by FLIPR assay
METRIC_NAME: EC50

# COMPOUND, TGT, EC50
records = [
    ("CN(CC1CCNCC1)C(=O)c1ccccc1-c1cccc(Cl)c1", "UniProt P11229", "> 10 µM"),
    ("O=C(NCC1CCNCC1)c1ccccc1-c1ccc(C(F)(F)F)cc1", "UniProt P11229", "> 10 µM"),
    ("N#Cc1cccc(-c2ccccc2C(=O)NCC2CCNCC2)c1", "UniProt P11229", "> 10 µM"),
    ("O=C(NCC1CCNCC1)c1ccccc1-c1cccc(Cl)c1", "UniProt P11229", "0.0631 µM"),
    ("O=C(NC1CCCCNC1)c1ccccc1-c1nc(Cl)cs1 (configuration not stated)", "UniProt P11229", "> 10 µM"),
    ("Cc1cc(Cl)cc(-c2ccccc2C(=O)NCC2CCNCC2)c1", "UniProt P11229", "1.58 µM"),
    ("O=C(NC1CCNCC1)c1ccccc1-c1nc(Cl)cs1", "UniProt P11229", "> 10 µM"),
    ("O=C(NCC1CCNCC1)c1ccccc1-c1cc(Cl)ccc1Cl", "UniProt P11229", "0.0398 µM"),
    ("O=C(NCC1CCNCC1)c1ccccc1-c1ccc(Cl)c(Cl)c1", "UniProt P11229", "0.0501 µM"),
    ("O=C(O)c1cccc(-c2ccccc2C(=O)NCC2CCNCC2)c1", "UniProt P11229", "> 10 µM"),
]

Reported EC50 for UniProt P11229, given `O=C(NCC1CCNCC1)c1ccccc1-c1cc(F)cc(Cl)c1` ?
> 10 µM

// query: `O=C(NCC1CCNCC1)c1ccccc1-c1cccc2ccccc12`
> 10 µM

// query: O=C(NC1CCCNC1)c1ccccc1-c1nc(Cl)cs1 (configuration not stated)
> 10 µM

// query: CC(NC(=O)c1ccccc1-c1cccc(Cl)c1)C1CCNCC1 (configuration not stated)
> 10 µM

// query: `O=C(NCC1CCNCC1)c1ccccc1-c1ccsc1`
> 10 µM

// query: `O=C(NC[C@H]1C[C@H]2CC[C@@H](C1)N2)c1ccccc1-c1cccc(Cl)c1`
> 10 µM

---

Recorded measurements of EC50, one per entry
TGT: Muscarinic acetylcholine receptor M1 (Homo sapiens, UniProt P11229)
Sequence (P11229 whole entry): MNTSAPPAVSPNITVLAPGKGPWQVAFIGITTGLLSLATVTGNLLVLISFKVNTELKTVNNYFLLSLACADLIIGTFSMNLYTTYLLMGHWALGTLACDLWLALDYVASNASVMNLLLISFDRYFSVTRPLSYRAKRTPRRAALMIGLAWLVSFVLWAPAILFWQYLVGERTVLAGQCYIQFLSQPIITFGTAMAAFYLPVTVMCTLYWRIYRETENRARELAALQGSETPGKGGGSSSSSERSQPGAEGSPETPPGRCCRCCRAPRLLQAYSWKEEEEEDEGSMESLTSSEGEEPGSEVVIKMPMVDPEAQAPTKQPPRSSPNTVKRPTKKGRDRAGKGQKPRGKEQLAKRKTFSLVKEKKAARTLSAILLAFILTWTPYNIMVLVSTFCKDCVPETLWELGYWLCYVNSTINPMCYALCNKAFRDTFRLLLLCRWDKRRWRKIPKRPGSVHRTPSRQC
RUN_DESCRIPTION: Agonist activity at human muscarinic M1 receptor expressed in CHO cells assessed as effect on acetylcholine-induced intracellular calcium level by FLIPR assay

Reported EC50 for Muscarinic acetylcholine receptor M1 (Homo sapiens, UniProt P11229), given `Cc1cccc(-c2ccccc2C(=O)NCC2CCNCC2)c1` ?
> 10 µM
